Reference source for all entries: paper doi:10.1101/2025.05.09.652710v1

Assay target: TMPRSS2 (Homo sapiens, UniProt O15393, Q253D/R252D/R255K/S251D/S254D)
Sequence (O15393 109-492 S251D/R252D/Q253D/S254D/R255K limits assumed): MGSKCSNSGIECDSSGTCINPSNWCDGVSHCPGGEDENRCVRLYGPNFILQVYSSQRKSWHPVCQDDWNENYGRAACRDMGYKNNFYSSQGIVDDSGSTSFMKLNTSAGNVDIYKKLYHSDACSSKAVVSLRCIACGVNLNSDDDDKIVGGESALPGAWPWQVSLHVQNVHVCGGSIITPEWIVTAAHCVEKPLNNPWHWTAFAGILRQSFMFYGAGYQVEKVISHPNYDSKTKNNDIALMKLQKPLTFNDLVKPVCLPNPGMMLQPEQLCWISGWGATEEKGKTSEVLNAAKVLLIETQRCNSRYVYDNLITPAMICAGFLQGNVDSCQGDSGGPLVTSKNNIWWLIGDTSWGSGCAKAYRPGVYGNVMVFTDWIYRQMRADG
Test name: Fluorogenic kinetic enzyme inhibitor assay, TMPRSS2
Measure: log10(IC50) (log10 of the value in nM)

>  <Smiles>
CC(=O)N1CCC[C@H]1C(=O)N[C@@H](CO)C(=O)N[C@@H](CCCCN)C(=O)N[C@@H](CCCNC(=N)N)C(=O)c1nc2ccccc2s1

>  <log10(IC50)>
-0.54

$$$$
>  <Smiles>
N=C(N)NCCC[C@H](NC(=O)[C@H](Cc1ccccc1)NC(=O)[C@H](CCC(N)=O)NC(=O)c1ccccc1)C(=O)c1nc2ccccc2s1

>  <log10(IC50)>
-1.10

$$$$
>  <Smiles>
CC[C@H](C)[C@H](NC(C)=O)C(=O)N[C@@H](CCC(N)=O)C(=O)N[C@H](C(=O)N[C@H](CCCNC(=N)N)C(=O)c1nc2ccccc2s1)C(C)C

>  <log10(IC50)>
0.46

$$$$
>  <Smiles>
CC(=O)N[C@@H](CC(C)C)C(=O)N[C@@H](CCC(N)=O)C(=O)N[C@@H](Cc1ccccc1)C(=O)N[C@@H](CCCNC(=N)N)C(=O)c1nc2ccccc2s1

>  <log10(IC50)>
-1.52

$$$$
>  <Smiles>
CC[C@H](C)[C@H](NC(C)=O)C(=O)N[C@@H](CO)C(=O)N[C@@H](Cc1ccccc1)C(=O)N[C@@H](CCCNC(=N)N)C(=O)c1nc2ccccc2s1

>  <log10(IC50)>
-1.15

$$$$
>  <Smiles>
CC[C@H](C)[C@H](NC(C)=O)C(=O)N[C@@H](CCC(N)=O)C(=O)N[C@@H](CO)C(=O)N[C@@H](CCCNC(=N)N)C(=O)c1nc2ccccc2s1

>  <log10(IC50)>
0.65

$$$$
>  <Smiles>
CC[C@H](C)[C@H](NC(C)=O)C(=O)N[C@@H](CCC(N)=O)C(=O)N[C@H](C(=O)N[C@@H](CCCNC(=N)N)C(=O)c1nc2ccccc2s1)[C@@H](C)O

>  <log10(IC50)>
-0.77

$$$$
>  <Smiles>
CC[C@H](C)[C@H](NC(C)=O)C(=O)N[C@@H](CCC(N)=O)C(=O)N[C@H](C(=O)N[C@@H](CCCNC(=N)N)C(=O)c1nc2ccccc2s1)C(C)C

>  <log10(IC50)>
-1.52

$$$$
>  <Smiles>
N=C(N)NCCC[C@H](NC(=O)[C@H](Cc1ccccc1)NC(=O)[C@H](CCC(N)=O)NC(=O)OCc1ccccc1)C(=O)c1nc2ccccc2s1

>  <log10(IC50)>
-0.38

$$$$
>  <Smiles>
CC[C@H](C)[C@H](NC(C)=O)C(=O)N[C@H](Cc1c[nH]c2ccccc12)C(=O)N[C@@H](Cc1ccccc1)C(=O)N[C@@H](CCCNC(=N)N)C(=O)c1nc2ccccc2s1

>  <log10(IC50)>
-1.40

$$$$

---

Test system: influenza A virus strain A/California/4/2009 (pdmH1N1)
Condition label: virus strain A/California/4/2009 (pdmH1N1, 72 h, 10 μM)

>  <Compound>
CC(=O)N1CCC[C@H]1C(=O)N[C@@H](CCC(N)=O)C(=O)N[C@@H](Cc1ccccc1)C(=O)N[C@@H](CCCNC(=N)N)C(=O)c1nc2ccccc2s1 [MM3123, Ac-PQFR-kbt]

>  <H1N1 titer Log fold reduction (10 μM)>
2.6

$$$$
>  <Compound>
N=C(N)NCCC[C@H](NC(=O)[C@H](Cc1ccccc1)NC(=O)[C@H](CCC(N)=O)NS(=O)(=O)C1CC1)C(=O)c1nc2ccccc2s1 [MF1104, CypSO2-QFR-kbt]

>  <H1N1 titer Log fold reduction (10 μM)>
3.0

$$$$
>  <Compound>
CSCC[C@H](NC(C)=O)C(=O)N[C@@H](CCC(N)=O)C(=O)N[C@@H](Cc1ccccc1)C(=O)N[C@@H](CCCNC(=N)N)C(=O)c1nc2ccccc2s1 [MM3130, Ac-MQFR-kbt]

>  <H1N1 titer Log fold reduction (10 μM)>
2.7

$$$$
>  <Compound>
N=C(N)NCCC[C@H](NC(=O)[C@H](Cc1ccccc1)NC(=O)[C@H](CCC(N)=O)NC(=O)c1ccccc1)C(=O)c1nc2ccccc2s1 [CA1043, Bz-QFR-kbt]

>  <H1N1 titer Log fold reduction (10 μM)>
3.0

$$$$
>  <Compound>
CC[C@H](C)[C@H](NC(C)=O)C(=O)N[C@@H](CCC(N)=O)C(=O)N[C@H](C(=O)N[C@@H](CCCNC(=N)N)C(=O)c1nc2ccccc2s1)C(C)C [MM3180, Ac-IQVR-kbt]

>  <H1N1 titer Log fold reduction (10 μM)>
2.6

$$$$
>  <Compound>
CC(=O)N1CCC[C@H]1C(=O)N[C@@H](CO)C(=O)N[C@@H](CCCCN)C(=O)N[C@@H](CCCNC(=N)N)C(=O)c1nc2ccccc2s1 [MM3194, Ac-PSKR-kbt]

>  <H1N1 titer Log fold reduction (10 μM)>
0.60

$$$$
>  <Compound>
N=C(N)NCCC[C@H](NC(=O)[C@H](Cc1ccccc1)NC(=O)[C@H](CCC(N)=O)NC(=O)OCc1ccccc1)C(=O)c1nc2ccccc2s1 [ZFH9141, Cbz-QFR-kbt]

>  <H1N1 titer Log fold reduction (10 μM)>
2.8

$$$$
